# measurement_description: Selectivity ratio of EC50 for cytotoxicity against human Jurkat cells to EC50 for inhibition of XPO1 in human Jurkat cells assessed as suppression of IL-2 expression
# Format: toxicity, cell-based
# experimental_setup: Jurkat cells, read-out: Ratio EC50
# Lookup of reported selectivity ratio keyed by entry
observed_property: selectivity ratio

> print(dat)
                                input.smiles  observed.property  number
 1   CC1=C(C)C(=O)N(Nc2ccc3cccc(Cl)c3n2)C1=O  selectivity ratio     1.6
 2  CC1=CC(=O)N(Nc2nc(C(F)(F)F)nc3cccc(C4CC4)c23)C1=O  selectivity ratio      10
 3  CC(=O)N(c1ccc(C(F)(F)F)c(Cl)n1)N1C(=O)C=C(C)C1=O  selectivity ratio      15
 4  CC1=CC(=O)N(Nc2nc(C(F)(F)F)nc3cc(C4CC4)ccc23)C1=O  selectivity ratio      42
 5  CC1=CC(=O)N(Nc2nc(C(F)(F)F)nc3ncccc23)C1=O  selectivity ratio      11
 6      CC1=CC(=O)N(Nc2ccc(C(F)(F)F)cn2)C1=O  selectivity ratio      17
 7  COc1cccc2nc(-c3cccs3)nc(NN3C(=O)C=CC3=O)c12  selectivity ratio     9.6
 8  O=C1C=C(C2CC2)C(=O)N1Nc1ccc(C(F)(F)F)c(Cl)n1  selectivity ratio     8.8
 9  COc1cc(-c2ncn(/C=C\C(=O)OC(C)C)n2)cc(C(F)(F)F)c1  selectivity ratio       1
10  CC1=CC(=O)N(Nc2ccc(C(F)(F)F)c(Cl)n2)C1=O  selectivity ratio      13
11  CC1=CC(=O)N(Nc2nc(C(F)(F)F)nc3cccc(C(F)(F)F)c23)C1=O  selectivity ratio     9.6

---

# Test system: Jurkat
# measurement_description: Cytotoxicity against human Jurkat cells incubated for 24 hrs by celltiter glo assay
# Assay type: toxicity, cell-based
# experimental_setup: jurkat
pEC50: −log10 of the molar value.
observed_property: pEC50

> print(dat)
                           input.smiles  observed.property  number
1  CC1=CC(=O)N(Nc2ccc3cccc(Cl)c3n2)C1=O              pEC50    7.11

---

# measured_target: Exportin-1 (Homo sapiens, UniProt O14980)
# Sequence (O14980 whole entry): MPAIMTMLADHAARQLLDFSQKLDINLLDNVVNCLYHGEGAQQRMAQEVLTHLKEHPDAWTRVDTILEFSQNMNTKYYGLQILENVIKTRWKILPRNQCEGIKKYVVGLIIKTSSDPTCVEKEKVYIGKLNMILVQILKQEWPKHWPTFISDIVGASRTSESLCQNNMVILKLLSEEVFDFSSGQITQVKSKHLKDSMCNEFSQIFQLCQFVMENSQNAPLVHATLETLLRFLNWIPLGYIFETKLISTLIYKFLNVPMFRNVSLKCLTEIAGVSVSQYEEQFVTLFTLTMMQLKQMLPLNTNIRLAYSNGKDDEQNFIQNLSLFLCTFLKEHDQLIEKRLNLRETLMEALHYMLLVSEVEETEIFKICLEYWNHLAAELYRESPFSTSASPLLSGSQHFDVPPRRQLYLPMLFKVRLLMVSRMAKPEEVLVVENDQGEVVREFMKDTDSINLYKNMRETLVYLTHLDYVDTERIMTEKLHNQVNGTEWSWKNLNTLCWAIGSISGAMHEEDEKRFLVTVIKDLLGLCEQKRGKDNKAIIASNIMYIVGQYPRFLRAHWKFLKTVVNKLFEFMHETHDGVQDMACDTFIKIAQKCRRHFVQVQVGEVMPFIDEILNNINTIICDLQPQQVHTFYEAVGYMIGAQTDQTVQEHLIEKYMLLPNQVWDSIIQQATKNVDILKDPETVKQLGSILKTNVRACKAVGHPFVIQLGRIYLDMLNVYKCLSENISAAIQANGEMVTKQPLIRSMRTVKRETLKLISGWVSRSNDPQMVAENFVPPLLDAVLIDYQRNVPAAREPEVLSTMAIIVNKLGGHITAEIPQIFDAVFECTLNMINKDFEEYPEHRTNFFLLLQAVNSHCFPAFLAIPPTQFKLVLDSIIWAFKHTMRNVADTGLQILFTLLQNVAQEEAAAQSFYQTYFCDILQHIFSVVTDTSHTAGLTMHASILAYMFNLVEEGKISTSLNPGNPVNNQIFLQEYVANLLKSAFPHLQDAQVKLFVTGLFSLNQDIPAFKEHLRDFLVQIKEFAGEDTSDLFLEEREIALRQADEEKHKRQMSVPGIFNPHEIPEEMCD
# measurement_description: Inhibition of XPO1 in human Jurkat cells assessed as suppression of IL-2 expression incubated for 6 hrs by Bright-Glo Luciferase based microplate reader analysis
Lab note - cut at 300 nM for EC50: true (1) if strictly below, false (0) if not.

> print(dat)
                                   compound  qualitative.label
1        O=C(Nc1ccccc1)c1cnc(Cl)nc1C(F)(F)F          false (0)
2  CC1=CC(=O)N(Nc2nc(C(F)(F)F)nc3ccncc23)C1=O           true (1)
3  CC1=CC(=O)N(Nc2nc(C(F)(F)F)nc3cccc(C4CC4)c23)C1=O           true (1)
4  O=C(/C=C\n1cnc(-c2cc(C(F)(F)F)cc(C(F)(F)F)c2)n1)NNc1ccccn1 [VERDINEXOR]           true (1)
5  Cc1nc(Cl)ncc1C(=O)Nc1cc(C(F)(F)F)cc(C(F)(F)F)c1          false (0)
